Test system: activated partial thromboplastin time (APTT)
protocol-description: Measurement of Anticoagulant Activity in Oral Administration (APTT)
Type: in vivo, male STD:Wistar rat
experimental-context: rat, 100 mg/kg, 1 hr
Counter-ions that a name gives are not always drawn.

{"molecule": "CCn1c(CC(C(=O)O)c2ccc(OC3CCN(C(C)=N)CC3)cc2)cc2ccc(C(=N)N)cc21.Cl.Cl (stereo not shown)", "target-of-assay": "activated partial thromboplastin time (APTT)", "Test/Control APTT Ratio": 3.96}
{"molecule": "Cl.Cl.N=C(N)c1ccc2sc(CC(CC(=O)O)c3ccc(O[C@H]4CCNC4)cc3)cc2c1 (stereo partly shown)", "target-of-assay": "activated partial thromboplastin time (APTT)", "Test/Control APTT Ratio": 1.28}
{"molecule": "CC(=N)N1CCC[C@H]1COc1ccc(C(Cc2cc3cc(C(=N)N)ccc3s2)C(=O)O)cc1.Cl.Cl (stereo partly shown)", "target-of-assay": "activated partial thromboplastin time (APTT)", "Test/Control APTT Ratio": 1.64}
{"molecule": "CC(=N)N1CCC(Oc2ccc(C(Cc3ccc4ccc(C(=N)N)cc4c3)C(=O)O)cc2)CC1.Cl.Cl (stereo not shown)", "target-of-assay": "activated partial thromboplastin time (APTT)", "Test/Control APTT Ratio": 2.18}
{"molecule": "Cl.Cl.N=C(N)c1ccc2cc(CC(C(=O)O)c3ccc(O[C@H]4CCNC4)cc3)[nH]c2c1 (single isomer, unassigned; (+))", "target-of-assay": "activated partial thromboplastin time (APTT)", "Test/Control APTT Ratio": 1.42}
{"molecule": "CC(=N)N1CC[C@H](Oc2ccc(C(Cc3nc4cc(C(=N)N)ccc4s3)C(=O)O)cc2)C1.Cl.Cl (stereo partly shown)", "target-of-assay": "activated partial thromboplastin time (APTT)", "Test/Control APTT Ratio": 1.22}
{"molecule": "CCn1c(CC(C(=O)O)c2ccc(O[C@H]3CCN(C(C)=N)C3)cc2)cc2ccc(C(=N)N)cc21 (stereo partly shown) [Inventive Example 105, Dihydrochloride]", "target-of-assay": "activated partial thromboplastin time (APTT)", "Test/Control APTT Ratio": 3.60}
